- Tested on: SF-295
- procedure_details: NCI tumour cell line growth inhibition, 48 h
Active and inactive are the calls of the source. No stated cut-off is given here; in the data, active = GI50 up to about 1.1 µM and inactive = higher. Where a SMILES comes first, the peptide text is derived from it. [ ]: non-standard residue; d: D form. The star is where a group is joined. Cbz = O=C(OCc1ccccc1)*; Aib = CC(C)(N)C(=O)O; OBn = c1ccc(CO*)cc1
value_type: GI50

Consider the compound O=[N+]([O-])c1ccc(NN=C2c3ccccc3Cc3ccccc32)c([N+](=O)[O-])c1 and give its measured GI50.
3.71 µM (inactive)

Consider the compound Brc1ccc(-c2cn3ccncc3n2)cc1 and give its measured GI50.
> 100 µM (inactive)

Consider the compound CN(C(=O)OC(C)(C)C)[C@H]1CCCC[C@H]1N1CCCC1 and give its measured GI50.
> 100 µM (inactive)

Consider the compound COC(=O)C1=C(OC(=O)c2ccccc2)C(C(=O)OC)[C@]2(O)[C@@H](C(=O)OC)[C@H]1C[C@@H](c1ccccc1)[C@@H]2C(=O)OC (some centres undefined) and give its measured GI50.
5.82 µM (inactive)

Consider the compound Clc1ccc(CCN2CCOCC2)c(Cl)c1 and give its measured GI50.
> 100 µM (inactive)

Consider the compound OC1NC2CC3NC(O)C(O)NC3CC2NC1O (centres undefined) and give its measured GI50.
> 100 µM (inactive)

Consider the compound CC(NC(=O)C(C)(C)NC(=O)C(CC(=O)OCc1ccccc1)NC(=O)OCc1ccccc1)C(N)=O (centres undefined) (Cbz-Asp(OBn)-[Aib]-Ala-NH2; configuration not given here) and give its measured GI50.
43 µM (inactive)

Consider the compound CC1=C(C(=O)OCCO[N+](=O)[O-])C(c2ccccc2C(F)(F)F)C(C(=O)OC(C)C)=C(C)N1 (centres undefined) and give its measured GI50.
11.8 µM (inactive)

Consider the compound Oc1ccc[n+](Cc2ccccc2)c1 and give its measured GI50.
> 100 µM (inactive)

###

Would you kindly list GI50 for each of these molecules?
- System: DLD-1
- procedure_details: NCI tumour cell line growth inhibition, 48 h
The source made the active and inactive calls. No stated cut-off is given here; in the data, active = GI50 up to about 1.1 µM and inactive = higher.

Consider the molecule CCCc1onc(CCC(=O)N(Cc2ccccc2)Cc2ccccc2)c1CC and give its measured GI50.
> 100 µM (inactive)

Consider the molecule O=C(CO[N+](=O)[O-])OCC(=O)c1ccccc1 and give its measured GI50.
> 100 µM (inactive)

Consider the molecule Cc1cc(C)nc(NS(=O)(=O)c2ccc(Nc3c4ccccc4nc4c(C(=O)N5CCN(CCOS(C)(=O)=O)CC5)ccc(Cl)c34)cc2)n1 and give its measured GI50.
> 100 µM (inactive)

Consider the molecule CC1NOC(=O)C1/N=N/c1ccc(Cl)cc1Cl (stereo unspecified) and give its measured GI50.
33.9 µM (inactive)

Consider the molecule COc1cc2c(cc1OC)CC(=O)Nc1cc(OC)c(OC)cc1CC2 and give its measured GI50.
40.3 µM (inactive)

Consider the molecule CC1=NN(C(=O)Nc2ccc(Cl)cc2)C(=O)C2CCC(=O)N12 (stereo unspecified) and give its measured GI50.
> 100 µM (inactive)

Consider the molecule O=C1NC2(CCCCCC2)C2CCCCCCC12O (stereo unspecified) and give its measured GI50.
> 100 µM (inactive)

Consider the molecule Cn1c2c([N+](=O)[O-])[se]nc2c(=O)n1-c1ccc([N+](=O)[O-])cc1 and give its measured GI50.
0.746 µM (active)

Consider the molecule CCOC(=O)C(=Cc1ccc(C(=O)OC)cc1)C(=O)OCC and give its measured GI50.
2.12 µM (inactive)

Consider the molecule CC(C)(C)c1cc(Oc2ccc(C#N)c(C#N)c2)cc(C(C)(C)C)c1 and give its measured GI50.
> 100 µM (inactive)

Consider the molecule COc1ccc(O)cc1C(O)c1ccccc1 (stereo unspecified) and give its measured GI50.
> 100 µM (inactive)

###

Would you kindly list GI50 for each of these compounds?
- System: SN12C
- procedure_details: NCI tumour cell line growth inhibition, 48 h
Calls of active or inactive are those of the source. Cut-off read from the data, not from the text of the source: active = GI50 up to about 1.1 µM and inactive = higher.

Consider the compound C/C(=N\NC(=S)N1CCC(N2CCCCC2)CC1)c1ccccn1 and give its measured GI50.
2.7 µM (inactive)

Consider the compound N=C(N)NS(=O)(=O)c1ccc(NC(=O)c2ccc3nc4ccccc4c(N)c3c2)cc1 and give its measured GI50.
> 100 µM (inactive)

Consider the compound C[C@@H](NC1CCC[C@H]1O)c1ccccc1 (stereo not given in full) and give its measured GI50.
> 100 µM (inactive)

Consider the compound COCOCCC#CCO and give its measured GI50.
> 100 µM (inactive)

Consider the compound O=C1c2ccccc2-c2nc(-c3ccncc3)cc3c2c1nc1ccccc13 and give its measured GI50.
15.1 µM (inactive)

Consider the compound O=c1c2cc([N+](=O)[O-])ccc2n2n1CCCC2 and give its measured GI50.
> 100 µM (inactive)

Consider the compound CCOC1CN=C(Nc2cccc3ccccc23)S1 (stereo not given) and give its measured GI50.
> 10 µM (inactive)

Consider the compound Cn1c(=O)nc2n(-c3ccc(F)cc3)c3ccccc3nc-2c1=O and give its measured GI50.
20.5 µM (inactive)

Consider the compound CN(C)/C=C(\C(=O)c1ccccc1)n1nc(-c2ccccc2)cc1-c1ccccc1 and give its measured GI50.
> 10 µM (inactive)

Consider the compound Cc1cc(C)nc(NS(=O)(=O)c2ccc(Nc3c4ccccc4nc4c(C(=O)N5CCN(CCOS(C)(=O)=O)CC5)ccc(Cl)c34)cc2)n1 and give its measured GI50.
> 100 µM (inactive)

Consider the compound CCOC(=O)c1c(Br)c(-c2ccc(Br)cc2)c(Br)n1C and give its measured GI50.
25.2 µM (inactive)

Consider the compound CC(C)=CC1C[C@H](C2CC=C3C2(C)CCC2[C@@]3(C)C(=O)CC3[C@]2(C)C=CC(=O)[C@]3(C)CO)CO1 (stereo not given in full) and give its measured GI50.
20.3 µM (inactive)

Consider the compound O=C(O)c1cc2cc(c1)/N=C/c1ccccc1OCc1cccc(n1)COc1ccccc1/C=N/2 and give its measured GI50.
14.8 µM (inactive)

Consider the compound c1cncc(C(Nc2cccc3cccnc23)Nc2cccc3cccnc23)c1 and give its measured GI50.
> 100 µM (inactive)

Consider the compound Cc1nc(O)nc2nc3ccc(Cl)cc3c(NC(C)(CO)CO)c12 and give its measured GI50.
> 100 µM (inactive)

Consider the compound COc1ccc(-c2cc(Cc3cccs3)c(=O)[nH]n2)cc1 and give its measured GI50.
> 100 µM (inactive)

Consider the compound CCOc1ccncc1[N+](=O)[O-] and give its measured GI50.
> 100 µM (inactive)

Consider the compound Cn1c(=O)c2[nH]cnc2n(CC(N)=O)c1=O and give its measured GI50.
> 100 µM (inactive)

Consider the compound c1ccc(-c2nnn3c2NC2=C(CCCC2)C3c2ccccc2)cc1 (stereo not given) and give its measured GI50.
21.1 µM (inactive)

Consider the compound CNc1nc2n(CCO)c(-c3ccccc3)c(-c3ccccc3)nc-2c(=O)n1 and give its measured GI50.
> 50 µM (inactive)

Consider the compound O=C1OCCC1(Cc1ccc(Cl)cc1)Cc1ccc(Cl)cc1 and give its measured GI50.
> 100 µM (inactive)

Consider the compound COc1ccc2c(CCNS(=O)(=O)c3ccccc3)c(C(C)=O)[nH]c2c1[N+](=O)[O-] and give its measured GI50.
> 100 µM (inactive)

Consider the compound NC(=O)C(=CNC(=S)Nc1ccc(S(=O)(=O)Nc2ccccn2)cc1)C(N)=O and give its measured GI50.
> 100 µM (inactive)

Consider the compound C/C(=N\NS(=O)(=O)c1ccc(C)cc1)C(CN1CCOCC1)C(c1ccccc1)c1c(O)c2ccccc2oc1=O (stereo not given) and give its measured GI50.
> 100 µM (inactive)

Consider the compound O=C1C(Cl)N(c2c(Cl)cccc2Cl)C1c1c[nH]c2ccccc12 (stereo not given) and give its measured GI50.
> 100 µM (inactive)

Consider the compound Clc1ccc(-c2nn3c(COc4ccc(OCc5nnc6sc(-c7ccc(Cl)cc7)nn56)c(Cl)c4)nnc3s2)cc1 and give its measured GI50.
> 100 µM (inactive)

Consider the compound CC(=O)OCC1OC(O[C@@H]2C[C@H]3C(C)(C)[C@H](OC(C)=O)CC[C@]3(C)[C@H]3CC[C@]4(C)C(=CC[C@H]4[C@@H](C)C[C@@H](O)[C@H](O)C(C)(C)O)[C@@]32C)C(O)C(O)C1O (stereo not given in full) and give its measured GI50.
17.5 µM (inactive)

Consider the compound O=C(Nc1ccn(C2CC(O)C(CO)O2)c(=O)n1)c1ccccc1 (stereo not given) and give its measured GI50.
> 100 µM (inactive)

Consider the compound O=[N+]([O-])/C(C(Cl)=C(Cl)Cl)=C(\N1CCCCC1)n1cncn1 and give its measured GI50.
17.5 µM (inactive)

Consider the compound COc1ccc2c(C=O)c3n(c(=O)c2c1OC)CCc1cc2c(cc1-3)OCO2 and give its measured GI50.
41.3 µM (inactive)

Consider the compound CC(C)(C)C(=O)N1CCN(C=O)C1=S and give its measured GI50.
36.8 µM (inactive)

Consider the compound CCN1C[C@]2(C)CC[C@H](OCc3ccccc3)C34C5C[C@@H]6CC[C@](O)(C(C[C@@H]32)C14)C5[C@H]6OCc1ccccc1 (stereo not given in full) and give its measured GI50.
> 100 µM (inactive)

Consider the compound Clc1ccc(CCN2CCOCC2)c(Cl)c1 and give its measured GI50.
> 100 µM (inactive)

Consider the compound CSCCC(NC(=O)Cc1ccc(C(=O)c2ccccc2)cc1)C(=O)O (stereo not given) and give its measured GI50.
> 100 µM (inactive)

Consider the compound c1ccc(NN=C(c2ccccn2)c2ccccn2)nc1 and give its measured GI50.
0.142 µM (active)

Consider the compound Cc1ccc2nc(-c3ccc(N)c(Br)c3)sc2c1 and give its measured GI50.
> 100 µM (inactive)

Consider the compound CC1=NN(C(=O)Nc2ccc(Cl)cc2)C(=O)C2CCC(=O)N12 (stereo not given) and give its measured GI50.
> 100 µM (inactive)

Consider the compound CC(=O)O[C@H]1CC[C@@]2(C)[C@@H](CC[C@@H]3[C@@H]2CC(=O)[C@@]2(C)[C@H]3C[C@@H]3CC(C)=CC(=O)[C@@H]32)C1 and give its measured GI50.
41 µM (inactive)

Consider the compound CCOC(=O)NC(Nc1c(F)c(F)c(F)c(F)c1F)(C(F)(F)F)C(F)(F)F and give its measured GI50.
> 100 µM (inactive)

Consider the compound CCCCSC1=N/C(=C\c2ccccc2O)C(Cl)=N1 and give its measured GI50.
> 100 µM (inactive)
